The values you see were collected from ChEMBL document CHEMBL1955773.

Assay: Metabolic stability of the compound in rat microsomes assessed as compound remaining after 30 mins
Assay type: ADME, Microsome
Settings: read-out: Stability
Label 1 (yes) when remaining at 0.5 h is strictly below 90%; otherwise label 0 (no).

Consider the following illustrative entries.
CCOc1ccc(Nc2nc3cc(NS(=O)(=O)CC)ccc3o2)cc1 | 1 (yes)
CCOc1ccc(Nc2nc3ccc(NS(=O)(=O)CC)cc3o2)cc1 | 1 (yes)
CCS(=O)(=O)c1ccc2oc(Nc3ccc(OC(F)(F)F)cc3)nc2c1 | 0 (no)

hey, is remaining at 0.5 h for "CCS(=O)(=O)c1ccc2oc(Nc3ccc(C(F)(F)F)cc3)nc2c1" lower than 90% or not? 0 (no)

hey, is remaining at 0.5 h for "CCS(=O)(=O)c1ccc2oc(Nc3ccc(N4C[C@@H](C)O[C@@H](C)C4)nc3)nc2c1" lower than 90% or not? 1 (yes)

hey, is remaining at 0.5 h for "CCOc1ccc(Nc2nc3ccc(S(=O)(=O)CC)cc3o2)cc1" lower than 90% or not? 1 (yes)
